System: EfPiwi piRISC loaded with L1MC piRNA (26 nt)
Assay: pre-steady-state target cleavage rate (min^-1); auxiliary factor: 500 nM Ephydatia muelleri Gtsf1; guide: L1MC piRNA 5'p-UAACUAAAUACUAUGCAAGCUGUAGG; higher = faster piRNA-guided slicing of the target
Returns 1 (yes) if the recorded pre-steady-state target cleavage rate is greater than or equal to 0.004, and 0 (no) otherwise.

UCCUCCUACAGCUUGCAAAGUAAUUAGUUA = 1 (yes)
UCCUGGAUCAGCUUGCAUAGUAGUUAGUUA = 1 (yes)
UCCUGGUUGAGCUUGCAUAGUAUUUAGUUA = 1 (yes)

Entry UCCUGGAUGUCGAACGUUAGUAUUUAGUCA : is its pre-steady-state target cleavage rate no less than 0.004?
0 (no)

Further, for UCCUGCUACAGCUUGCAUAGUAUAUACAAA ?
0 (no)

Further, for UCCUCCUACAGGUUGCAUAGUAUUUACAAA ?
0 (no)

* * *

System: MILI (PIWIL2) piRISC loaded with L1MC piRNA (26 nt);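 further: 1 nM active piRISC with 0.1 nM target library at 33 °C single turnover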
Assay: pre-steady-state target cleavage rate (min^-1); guide: L1MC piRNA 5'p-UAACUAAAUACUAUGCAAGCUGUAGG; higher = faster piRNA-guided slicing of the target
Settings: auxiliary factor: none (no GTSF1)
Returns Met if the recorded pre-steady-state target cleavage rate is greater than or equal to 0.006, and Not met otherwise.

UCCUGGUACAGCUUCGUUAGUAUUUAGAAA = Not met
UCCUGGAUGUCGAACCAAAGUAUUUUGUUA = Not met
UCCUGGAUGUCGAACGUAUCUAUAUUGUUA = Not met
UCCUGGAUCAGGUUGCUUAGUAUUUAGUUA = Met
UCCUCCUACAGCUUGCAUAGUAUUUCAGUUA = Not met

Entry UCCUGCUACAGCUUGCAUAGUAUUUAGUUA [g2:g25:cont:t1A] : is its pre-steady-state target cleavage rate no less than 0.006?
Met

Further, for UCCUGCUACAGCGUUGCAUAGUAUUUAGUUA ?
Met

Further, for UCCUGGAUGUCGAACGUUAGUAUUUAGUAA ?
Not met

Further, for UCCUGGAUCAGCUUGCAAGUAUUUAGUUA ?
Not met

Further, for UCCUGCUACUGGUUGCAUAGUAUUUAGUUA ?
Met

Further, for UCCUGGAUGUGGUUGCAUAGUAUAUAGUUA ?
Met

Further, for UCCUGGAUGUGCUUGCAUACAUAAAUCAAA [g12:g20:cont:t1A] ?
Not met

* * *

System: MILI (PIWIL2) piRISC loaded with L1MC piRNA (26 nt);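 further: 1 nM active piRISC with 0.1 nM target library at 33 °C single turnover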
Experiment: pre-steady-state target cleavage rate (min^-1); guide: L1MC piRNA 5'p-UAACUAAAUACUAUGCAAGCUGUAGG; MIWI and MILI are mouse PIWI proteins and EfPiwi is from a freshwater sponge; tags in brackets are library labels; higher = faster piRNA-guided slicing of the target
Settings: auxiliary factor: 500 nM mouse GTSF1
Catalogue of pre-steady-state target cleavage rate values
Answer field: number only, no words.

Bench note: what pre-steady-state target cleavage rate did UCCUGGAUCAGCUUGGUUAGUAUUUAGUUA show?
0.209

Further, for UCCUCCUACAGCUAGCAUAGUAUUUUGUUA ?
0.151

Further, for UCCUGGAUCACGAUGCAUAGUAUUUAGAAA ?
0.111

Further, for UCCUGGAUCAGCUAGCAUAGAAUUUAGUUA ?
0.0367
